Test system: MS2 coat protein
Experiment: apparent KD of MS2 coat protein; designed switch direction (-1 OFF switch, 1 ON switch): -1; higher = weaker reporter binding
Details: Eterna round: R95; input ligand: microRNA oligo, concentration not stated
attributeMeasured: apparent KD of MS2 coat protein (nM)

[[record]]
polymersequence = "AGUACUAACACGAAAGUGUUAGUACAAUAAGCUUGUGUUACAUGAGGAUCACCCAUGUCCUCAUAAGCUCGUCUUAA [Mat - Sensor v3 - Turn-off var 2 - D49] (puzzle: Sensor v3, turn-off variant 2)"
obsvalue = 200

[[record]]
polymersequence = "AUUUAACAUGAGGAUCACCCAUGUGAGGAUAUGUAAAUUUUAAACAAAUAGGAAAUGAACAGAAGGCACACCGG [JR_Exclusion1_Sub006] (puzzle: Exclusion 1)"
obsvalue = 41.6

[[record]]
polymersequence = "AUUUUAAUAUAGGAUAUCGAAAUUAUUAUUUAACGAGAAGGAUAAACAUGAGGAUCACCCAUGUGGUAUCAUGG [JMFs Solution 1] (puzzle: Exclusion 6)"
obsvalue = 134

[[record]]
polymersequence = "CAUAUAGUAGUCAGGAUAUGCGAAUAUAUAAUUAAGUAGAAGGGACAUGAGGAUCACCCAUGUAUAUUGUAAAG [EX-4 Malc #2] (puzzle: Brourd's mod of Exclusion 4)"
obsvalue = 26.1

[[record]]
polymersequence = "CUUGUUUAUGUGAGGAUAUACUGUUAGUAAUGUUUGUAGAAGGUACAUGAGGAUCACCCAUGUUUAUUUCCUUU [JR_BME4_Sub045] (puzzle: Brourd's mod of Exclusion 4)"
obsvalue = 13.8

[[record]]
polymersequence = "UGCAUGGUAGGAUAUACGGAACAUUAGGGUUUGUUAUGUAGACAUGAGGAUCACCCAUGUAGAAGGGCCGUGCU [JL-ex2-2.14 mat747 mod] (puzzle: Exclusion 2)"
obsvalue = 33.8

[[record]]
polymersequence = "CUCUUGGCAGGAUAUGCUCUCUUAGACAUGAGGAUCACCCAUGUGUUCAUUCUUUCUUUUGCAGAAGGGCCUUAAC [JR_E5_Sub046] (puzzle: Exclusion 5)"
obsvalue = 65.2

[[record]]
polymersequence = "AUAUACGUUGAGGAUAUGCGAAUAAGUAUAGUUGCAGAAGGCGACACAUGAGGAUCACCCAUGUUCAUGGACAC [LRO-Ex6-03] (puzzle: Exclusion 6)"
obsvalue = 26.6

[[record]]
polymersequence = "AUGGUCCGAGGAUAUAUUAUGUGAUACAUGAGGAUCACCCAUGUUAUAUGAUGGAUGUUAGUAGAAGGCGGACUAC [salish99_ex5_r3_002] (puzzle: Exclusion 5)"
obsvalue = 82.2

[[record]]
polymersequence = "CUCGUGUGAGGAUAUCUAUUCCACGGACGGGAGUCUUGAUGAGAGAAGGCACAUGAGGAUCACCCAUGUAAUAA [Laveinxe] (puzzle: Exclusion 4)"
obsvalue = 105

[[record]]
polymersequence = "UUCCUGUCAGGAUAUGACUAGAUGCACGUUAGUGUGUUUACUUAGAAGGGACAUGAGGAUCACCCAUGUAGUCC [Bring Us a Shrubbery-16] (puzzle: Exclusion 4)"
obsvalue = 31.7

